molecular target: VEGF (vascular endothelial growth factor) (UniProt P15692-4 P15692-4:27-191); assay: cell_activity; inhibition of HUVEC proliferation with 10 ng/ml VEGF; KS cells (KSY-1) IC50 about 100 nM; details: chain copies: 2
Sequence (P15692 other isoform, or with tags, fused parts or gaps): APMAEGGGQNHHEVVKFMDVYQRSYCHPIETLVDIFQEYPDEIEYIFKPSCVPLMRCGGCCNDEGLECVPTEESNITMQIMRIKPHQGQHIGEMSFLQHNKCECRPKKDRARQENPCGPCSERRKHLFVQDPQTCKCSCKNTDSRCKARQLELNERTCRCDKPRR
EXPERIMENTAL_READOUT: IC50

input: Report IC50 for TTTTACCCUGAUGGUAGACGCCGGGGUGTTTTT (mixed, 5'-dialkylglycerol (DAG), embedded in DSPC:cholesterol liposome) [NX278-liposome]
output: ~300 nM
